Measured IC50, listed per entry for reference.
biological target: 5-HT7 (Homo sapiens); construct: purchased Euroscreen/BioSignal Packard Inc; test: Radioligand binding, 5-HT7 ([3H]LSD); conditions: Table 4; [3H]LSD 3 nM; read-out: Binding affinity, IC50 (nM) 5-HT7
Sequence (P34969 whole entry): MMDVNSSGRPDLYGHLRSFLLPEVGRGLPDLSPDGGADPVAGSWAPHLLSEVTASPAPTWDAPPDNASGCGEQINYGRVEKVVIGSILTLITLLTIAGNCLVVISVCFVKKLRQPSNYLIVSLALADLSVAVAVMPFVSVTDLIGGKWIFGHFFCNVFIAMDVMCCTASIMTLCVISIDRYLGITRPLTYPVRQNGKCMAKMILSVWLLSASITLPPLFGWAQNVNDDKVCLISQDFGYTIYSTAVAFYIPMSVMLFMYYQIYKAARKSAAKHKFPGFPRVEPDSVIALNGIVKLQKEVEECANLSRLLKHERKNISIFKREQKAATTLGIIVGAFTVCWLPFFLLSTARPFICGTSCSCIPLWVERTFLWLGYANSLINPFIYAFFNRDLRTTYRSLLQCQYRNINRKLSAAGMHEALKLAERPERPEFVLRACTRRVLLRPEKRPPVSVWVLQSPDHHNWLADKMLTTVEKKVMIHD

Record excerpt, results attached:
Compound	IC50
CN1CCN(c2cc(Cl)cc3c2C(=O)C(C)(c2ccc(O)cc2)C(=O)N3Cc2cccc(N)c2)CC1 (stereo not shown) [Example 10]	> 10000 nM
COc1ccc(C2(C)C(=O)c3c(N4CCNCC4)cc(Cl)cc3N(Cc3cccc(OC)c3)C2=O)cc1 (stereo not shown) [Example 27]	> 1000 nM
CC1(c2ccc(O)cc2)C(=O)c2c(N3CCNCC3)cc(Cl)cc2N(Cc2cccc(O)c2)C1=O (stereo not shown) [Example 28]	> 10000 nM

Proceed to the following item.
Prompt: Record request: IC50 value, item CCN(CC)c1ccc(C2(C)C(=O)c3c(N4CCNCC4)cc(Cl)cc3N(Cc3ccccc3)C2=O)cc1 (stereo not shown) [Example 17]
Completion: > 10000 nM

* * *

molecular target: 5-HT1a (Homo sapiens, UniProt P08908); construct: purchased Euroscreen/BioSignal Packard Inc; experiment: Radioligand binding, 5-HT1a ([3H]8-OH-DPAT); conditions: Table 4; [3H]8-OH-DPAT 0.5 nM; read-out: Binding affinity, IC50 (nM) 5-HT1a
Sequence (P08908 whole entry): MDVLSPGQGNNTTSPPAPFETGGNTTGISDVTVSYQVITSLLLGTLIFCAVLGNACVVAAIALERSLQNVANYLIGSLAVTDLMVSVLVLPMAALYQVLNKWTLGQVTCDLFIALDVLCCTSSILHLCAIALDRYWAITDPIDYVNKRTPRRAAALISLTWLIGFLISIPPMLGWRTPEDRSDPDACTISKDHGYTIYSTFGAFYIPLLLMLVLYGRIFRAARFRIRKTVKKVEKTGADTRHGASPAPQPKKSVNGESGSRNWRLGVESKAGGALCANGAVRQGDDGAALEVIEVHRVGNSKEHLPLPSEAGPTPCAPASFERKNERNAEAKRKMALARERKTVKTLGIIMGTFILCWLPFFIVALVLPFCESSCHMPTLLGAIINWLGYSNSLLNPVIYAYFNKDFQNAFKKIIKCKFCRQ
Measured IC50, listed per entry for reference.
Report only the number, with the unit nM understood.

Record excerpt, results attached:
Compound	Units Of Measure	IC50
CC1(c2ccc(O)cc2)C(=O)c2c(N3CCNCC3)cc(Cl)cc2N(Cc2cccc(N)c2)C1=O (stereo not shown) [Example 26]	nM	5900
COc1ccc(C2(C)C(=O)c3c(N4CCNCC4)cc(Cl)cc3N(Cc3nc4ccccc4[nH]3)C2=O)cc1 (stereo not shown) [Example 43]	nM	8020
CCN(CC)c1ccc(C2(C)C(=O)c3c(N4CCNCC4)cc(Cl)cc3N(Cc3ccccc3)C2=O)cc1 (stereo not shown) [Example 17]	nM	8550
COc1ccc(C2(C)C(=O)c3c(N4CCNCC4)cc(Cl)cc3N(Cc3ccccc3Br)C2=O)cc1 (stereo not shown) [Example 35]	nM	9510

Prompt: Record request: IC50 value, item COc1ccc(C2(C)C(=O)c3c(N4CCN(C)CC4)cc(Cl)cc3N(Cc3ccccc3)C2=O)cc1 (stereo not shown) [Example 1]
Completion: 4410

* * *

biological target: 5-HT2c (Homo sapiens); construct: purchased Euroscreen/BioSignal Packard Inc; assay: Radioligand binding, 5-HT2c ([3H]Mesulergine); settings: Table 4; [3H]Mesulergine 1 nM; read-out: Binding affinity, IC50 (nM) 5-HT2c
Sequence (P28335 33-458): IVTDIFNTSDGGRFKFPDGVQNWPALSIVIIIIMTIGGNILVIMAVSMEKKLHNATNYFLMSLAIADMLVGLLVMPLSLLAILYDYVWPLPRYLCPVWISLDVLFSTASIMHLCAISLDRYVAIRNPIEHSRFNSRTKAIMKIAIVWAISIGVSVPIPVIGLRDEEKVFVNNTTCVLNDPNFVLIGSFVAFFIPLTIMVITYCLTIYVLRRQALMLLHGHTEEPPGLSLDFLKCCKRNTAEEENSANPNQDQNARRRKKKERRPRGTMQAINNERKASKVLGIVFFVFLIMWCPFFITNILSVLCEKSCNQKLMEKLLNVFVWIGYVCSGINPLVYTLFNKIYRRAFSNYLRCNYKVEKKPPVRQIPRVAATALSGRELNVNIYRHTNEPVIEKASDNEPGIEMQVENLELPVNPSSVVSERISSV
Recorded Metric: IC50

Record excerpt, results attached:
Compound	Measurement Target	IC50
CC1(c2ccc(O)cc2)C(=O)c2c(N3CCNCC3)cc(Cl)cc2N(Cc2ccc3ccccc3n2)C1=O (stereo not drawn)	5-HT2c (Homo sapiens)	> 1000 nM
CC1(c2ccc(O)cc2)C(=O)c2c(N3CCNCC3)cc(Cl)cc2N(Cc2ccccc2)C1=O (racemic)	5-HT2c (Homo sapiens)	> 10000 nM

Prompt: Could you share what IC50 was measured for CN1CCN(c2cc(Cl)cc3c2C(=O)C(C)(c2ccc([N+](=O)[O-])cc2)C(=O)N3Cc2ccccc2)CC1 (stereo not drawn) , tested on 5-HT2c (Homo sapiens)?
Completion: > 10000 nM
